Tested on: patients with sinus & lung diseases including IPF and COPD
Assay: Salts of pyruvate as 20 mM nasal sprays (Table IX)
Conditions: 20 mM (0.22%) nasal spray; 1 most negative, 10 best

COMPOUND	TEST SYSTEM	Overall Rating 1-10
CC(=O)C(=O)[O-].[Li+] [Lithium, lithium pyruvate]	patients with sinus & lung diseases including IPF and COPD	2
CC(=O)C(=O)[O-].[K+] [Potassium, potassium pyruvate]	patients with sinus & lung diseases including IPF and COPD	6
CC(=O)C(=O)O.N [Ammonium, ammonium pyruvate]	patients with sinus & lung diseases including IPF and COPD	1
CC(=O)C(=O)[O-].[Na+] [Sodium, sodium pyruvate]	patients with sinus & lung diseases including IPF and COPD	7

====

Tested on: patients with lung diseases including COPD
Assay: Comparison of inhaled salts of pyruvate, 5 ml of 5 mM solution (Table II)
Conditions: 5 ml of 5 mM solution, inhaled
Rule: 1 (yes) for Relief of congestion, coughing and lung tightness not less than 5, 0 (no) for anything less.

MOLECULE	GROUP
CC(=O)C(=O)[O-].[Li+] [Lithium, lithium pyruvate]	0 (no)
CC(=O)N[C@@H](CS)C(=O)O [N-acetylcysteine, reference compound]	1 (yes)
CC(=O)C(=O)O.N [Ammonium, ammonium pyruvate]	0 (no)
CC(=O)C(=O)N[C@@H](CS)C(=O)O	1 (yes)

====

Test system: patients with chronic Hypoxemia
Assay: Various drugs with or without pre-inhaled pyruvate formulas (Table VII)
Format: in vivo, human
Conditions: Drug in commercial formula with Pre-inhaled sodium pyruvate, calcium & phosphate & magnesium
Examples of compounds with documented SaO2 measurements taken after taking medication and compared to baseline follow.
ATTRIBUTE MEASURED: SaO2 measurements taken after taking medication and compared to baseline

COMPOUND	MEASURED
NC(=O)c1ncn([C@@H]2O[C@H](CO)[C@@H](O)[C@H]2O)n1	+2
NC[C@H]1O[C@H](O[C@H]2[C@H](O)[C@@H](O[C@H]3O[C@H](CO)[C@@H](O)[C@H](N)[C@H]3O)[C@H](N)C[C@@H]2N)[C@H](N)C[C@@H]1O	+3
CC(=O)N[C@@H](CS)C(=O)O [N-acetylcysteine, reference compound]	+4
C/C(=C\C(=O)OCCCCCCCCC(=O)O)C[C@@H]1OC[C@H](C[C@@H]2O[C@H]2[C@@H](C)[C@H](C)O)[C@@H](O)[C@H]1O	+4
Clc1ccccc1C(c1ccccc1)(c1ccccc1)n1ccnc1	+1
N=C(N)c1ccc(OCCCCCOc2ccc(C(=N)N)cc2)cc1 [Pentamidine isethionate]	+2
Oc1ccc2c(c1)[C@@]13CCCC[C@@]1(O)[C@@H](C2)N(CC1CCC1)CC3	0
CN[C@H](CC(C)C)C(=O)N[C@H]1C(=O)N[C@@H](CC(N)=O)C(=O)N[C@H]2C(=O)N[C@H]3C(=O)N[C@H](C(=O)N[C@H](C(=O)O)c4cc(O)cc(O)c4-c4cc3ccc4O)[C@H](O)c3ccc(c(Cl)c3)Oc3cc2cc(c3O[C@@H]2O[C@H](CO)[C@@H](O)[C@H](O)[C@H]2O[C@H]2C[C@](C)(N)[C@H](O)[C@H](C)O2)Oc2ccc(cc2Cl)[C@H]1O	+1
C[C@H]1[C@H](NC(=O)/C(=N\OC(C)(C)C(=O)O)c2csc(N)n2)C(=O)N1S(=O)(=O)O	+4
O=C(O)c1cc(=O)c2c(OCC(O)COc3cccc4oc(C(=O)O)cc(=O)c34)cccc2o1 [Cromoglycate]	+5
CC(=O)N[C@H]1[C@H]([C@H](O)[C@H](O)CO)OC(C(=O)O)=C[C@@H]1N=C(N)N	+5
CC(C)(C)NCC(O)c1ccc(O)c(CO)c1 (stereo not shown)	+4
CC1(C)O[C@@H]2C[C@H]3[C@@H]4C[C@H](F)C5=CC(=O)C=C[C@]5(C)[C@H]4[C@@H](O)C[C@]3(C)[C@]2(C(=O)CO)O1 [Flunisolide]	+4
